- ASSAY: clinical
- TEST_SETTINGS: human, in vivo, AUC72 h (mean)
PARAMETER: AUC(0-t) (ng·h/mL)
Numbers only, in ng·h/mL.

Quick check: AUC(0-t) of `COc1nc2ccc(Br)cc2cc1[C@@H](c1ccccc1)[C@@](O)(CCN(C)C)c1cccc2ccccc12` ?
13900

---

- ASSAY: Phase 1 crossover drug-drug interaction study, plasma pharmacokinetics in healthy adults
- TEST_SETTINGS: human, plasma, oral, Cmax (mean), Treatment B Day 5: bedaquiline 100 mg + clarithromycin 500 mg every 12 hours, n=16
PARAMETER: Cmax (µg/mL)
Give bare numbers, in µg/mL.

Quick check: Cmax of CC[C@H]1OC(=O)[C@H](C)[C@@H](O[C@H]2C[C@@](C)(OC)[C@@H](O)[C@H](C)O2)[C@H](C)[C@@H](O[C@@H]2O[C@H](C)C[C@H](N(C)C)[C@H]2O)[C@](C)(OC)C[C@@H](C)C(=O)[C@H](C)[C@@H](O)[C@]1(C)O [Clarithromycin, clarithromycin, reference compound] ?
2.97

---

- ASSAY: clinical
- TEST_SETTINGS: human, in vivo, 100 mg, Cmax (mean)
PARAMETER: Cmax (ng/mL)
Answers are plain numbers, in ng/mL.

Quick check: Cmax of COc1nc2ccc(Br)cc2cc1[C@@H](c1ccccc1)[C@@](O)(CCN(C)C)c1cccc2ccccc12 [Bedaquiline] ?
1390

---

- ASSAY: clinical
- TEST_SETTINGS: human, in vivo, AUC240 h (mean)
PARAMETER: AUC(0-t) (µg·h/mL)
Give bare numbers, in µg·h/mL.

Quick check: AUC(0-t) of `COc1nc2ccc(Br)cc2cc1[C@@H](c1ccccc1)[C@@](O)(CCN(C)C)c1cccc2ccccc12` ?
17.6

---

- ASSAY: Phase 1 crossover drug-drug interaction study, plasma pharmacokinetics in healthy adults
- TEST_SETTINGS: human, plasma, oral, tmax (median), Treatment B Day 5: bedaquiline 100 mg + clarithromycin 500 mg every 12 hours, n=16
PARAMETER: Tmax (h)
Answers are plain numbers, in h.

Quick check: Tmax of CC[C@H]1OC(=O)[C@H](C)[C@@H](O[C@H]2C[C@@](C)(OC)[C@@H](O)[C@H](C)O2)[C@H](C)[C@@H](O[C@@H]2O[C@H](C)C[C@H](N(C)C)[C@H]2O)[C@](C)(OC)C[C@@H](C)C(=O)[C@H](C)[C@@H](O)[C@]1(C)O [Clarithromycin, clarithromycin, reference compound] ?
3
